Taken from patent US6319702A.

Test: Stability and biodistribution of prodrugs in vivo (HPLC of plasma and tissues)
Set-up: species or system mice (CD-1 nude; BALB/C where indicated)
Settings: mouse, large intestine, 50 mg/kg, LARGE INTESTINE, 30 min, 50 mg/kg i.p. or i.v., CD-1 nude mice; read-out: stability: percentage of material observed as intact prodrug, large intestine
measuredQuantity: remaining at 0.5 h (%)
// units = %; emit number, no label

Measured remaining at 0.5 h, CN(Cc1cnc2nc(N)nc(N)c2n1)c1ccc(C(=O)N[C@@H](CCC(=O)O)C(=O)N[C@@H](Cc2ccccc2C2CCCC2)C(=O)O)cc1 [Prodrug 8] : 93

Recorded remaining at 0.5 h (compound Nc1nc(N)c(CCCNc2ccc(C(=O)N[C@@H](CCC(=O)O)C(=O)N[C@@H](Cc3cccc(C4CCCC4)c3)C(=O)O)cc2)c(=O)[nH]1 [Prodrug 14] ): 100

Form: compound = CN(Cc1cnc2nc(N)nc(N)c2n1)c1ccc(C(=O)N[C@@H](CCC(=O)O)C(=O)N[C@@H](Cc2ccc(O)c(C3CCCC3)c2)C(=O)O)cc1 [Prodrug 13] ; remaining at 0.5 h = 100

====

Experiment: Stability and biodistribution of prodrugs in vivo (HPLC of plasma and tissues)
Parameters: species or system mice (CD-1 nude; BALB/C where indicated)
Settings: SPLEEN, 120 min, 50 mg/kg i.p. or i.v., CD-1 nude mice
Quick rule: concentration of prodrug in spleen of at least 1 nmol/g means Fulfilled, below that means Not fulfilled.

Observe how each entry below is paired with its result.
                                   compound            cat
0  Cc1nc2ccc3ccc(CNc4ccc(C(=O)N[C@@H](CCC(=O)O)C(=O)N[C@@H](CCC(=O)O)C(=O)O)c(F)c4)cc3c2c(=O)[nH]1 [Prodrug 1]      Fulfilled
1  CN(Cc1cnc2nc(N)nc(N)c2n1)c1ccc(C(=O)N[C@@H](CCC(=O)O)C(=O)N[C@@H](CC(=O)O)C(=O)O)cc1 [Prodrug 6]  Not fulfilled
2  Cc1nc2ccc3ccc(CNc4ccc(C(=O)N[C@@H](CCC(=O)O)C(=O)N[C@@H](Cc5ccccc5I)C(=O)O)c(F)c4)cc3c2c(=O)[nH]1 [Prodrug 5]      Fulfilled
3  CN(Cc1cnc2nc(N)nc(N)c2n1)c1ccc(C(=O)N[C@@H](CCC(=O)O)C(=O)N[C@@H](Cc2ccccc2C2CCCC2)C(=O)O)cc1 [Prodrug 8]      Fulfilled

Kindly consider the entry below.
**Query** Confirm if concentration of prodrug in spleen reported for the compound CN(Cc1cnc2nc(N)nc(N)c2n1)c1ccc(C(=O)N[C@@H](CCC(=O)O)C(=O)N[C@@H](Cc2ccc(O)c(C3CCCC3)c2)C(=O)O)cc1 [Prodrug 13] is 1 nmol/g or above.
**Result** Not fulfilled

====

Test: Stability and biodistribution of prodrugs in vivo (HPLC of plasma and tissues)
Design: species or system mice (CD-1 nude; BALB/C where indicated)
Settings: mouse, liver, 50 mg/kg, LIVER, 30 min, 50 mg/kg i.p. or i.v., CD-1 nude mice; read-out: stability: percentage of material observed as intact prodrug, liver (converted)
Reported remaining at 0.5 h values for the following molecules.
Give your result in % as a bare value.

Here are 5 molecules together with their reported answers.
>>> print(df.to_string())
                                   molecule    measuredquantity  reported
0  Nc1nc(N)c(CCCNc2ccc(C(=O)N[C@@H](CCC(=O)O)C(=O)N[C@@H](Cc3cccc(C4CCCC4)c3)C(=O)O)cc2)c(=O)[nH]1 [Prodrug 14]  remaining at 0.5 h       100
1  CN(Cc1cnc2nc(N)nc(N)c2n1)c1ccc(C(=O)N[C@@H](CCC(=O)O)C(=O)N[C@@H](Cc2cccc(C3CCC3)c2)C(=O)O)cc1 [Prodrug 11]  remaining at 0.5 h      81.3
2  CN(Cc1cnc2nc(N)nc(N)c2n1)c1ccc(C(=O)N[C@@H](CCC(=O)O)C(=O)N[C@@H](CC(=O)O)C(=O)O)cc1 [Prodrug 6]  remaining at 0.5 h        97
3  Cc1nc2ccc3ccc(CNc4ccc(C(=O)N[C@@H](CCC(=O)O)C(=O)N[C@@H](Cc5ccccc5I)C(=O)O)c(F)c4)cc3c2c(=O)[nH]1 [Prodrug 5]  remaining at 0.5 h        81
4  Cc1nc2ccc3ccc(CNc4ccc(C(=O)N[C@@H](CCC(=O)O)C(=O)N[C@@H](CCC(=O)O)C(=O)O)c(F)c4)cc3c2c(=O)[nH]1 [Prodrug 1]  remaining at 0.5 h        98

Sure, the documented remaining at 0.5 h for CN(Cc1cnc2nc(N)nc(N)c2n1)c1ccc(C(=O)N[C@@H](CCC(=O)O)C(=O)N[C@@H](Cc2ccc(O)c(C3CCCC3)c2)C(=O)O)cc1 [Prodrug 13] is 100

Recorded result, Cc1nc2ccc3ccc(CNc4ccc(C(=O)N[C@@H](CCC(=O)O)C(=O)N[C@@H](Cc5cccc6ccccc56)C(=O)O)c(F)c4)cc3c2c(=O)[nH]1 [Prodrug 3] , remaining at 0.5 h: 79

Record CN(Cc1cnc2nc(N)nc(N)c2n1)c1ccc(C(=O)N[C@@H](CCC(=O)O)C(=O)N[C@@H](Cc2ccccc2C(=O)O)C(=O)O)cc1 [Prodrug 7] , field remaining at 0.5 h: 100

Lab book: remaining at 0.5 h of CN(Cc1cnc2nc(N)nc(N)c2n1)c1ccc(C(=O)N[C@@H](CCC(=O)O)C(=O)N[C@@H](Cc2ccccc2)C(=O)O)cc1 [Prodrug 10, reference compound] noted as 94.4

Memo: CN(Cc1cnc2nc(N)nc(N)c2n1)c1ccc(C(=O)N[C@@H](CCC(=O)O)C(=O)N[C@@H](Cc2ccccc2C2CCCC2)C(=O)O)cc1 [Prodrug 8] , reported remaining at 0.5 h: 90

Form: molecule = Cc1nc2ccc3ccc(CNc4ccc5c(c4)CN([C@@H](CCC(=O)O)C(=O)N[C@@H](Cc4ccccc4)C(=O)O)C5=O)cc3c2c(=O)[nH]1 [Prodrug 2] ; remaining at 0.5 h = 96

====

Assay: Stability and biodistribution of prodrugs in vivo (HPLC of plasma and tissues)
Design: species or system mice (CD-1 nude; BALB/C where indicated)
Settings: KIDNEY, 120 min, 50 mg/kg i.p. or i.v., CD-1 nude mice
Tag: TRUE if measured concentration of prodrug in kidney is not below 3 nmol/g, FALSE if it is.

Some solved entries appear below for comparison.
In [3]: df
Out[3]:
                                   compound    cat
0  CN(Cc1cnc2nc(N)nc(N)c2n1)c1ccc(C(=O)N[C@@H](CCC(=O)O)C(=O)N[C@@H](Cc2cccc(C(C)(C)C)c2)C(=O)O)cc1 [Prodrug 12]  FALSE
1  CN(Cc1cnc2nc(N)nc(N)c2n1)c1ccc(C(=O)N[C@@H](CCC(=O)O)C(=O)N[C@@H](Cc2ccc(O)c(C3CCCC3)c2)C(=O)O)cc1 [Prodrug 13]  FALSE
2  CN(Cc1cnc2nc(N)nc(N)c2n1)c1ccc(C(=O)N[C@@H](CCC(=O)O)C(=O)N[C@@H](Cc2ccccc2)C(=O)O)cc1 [Prodrug 10, reference compound]  FALSE
3  CN(Cc1cnc2nc(N)nc(N)c2n1)c1ccc(C(=O)N[C@@H](CCC(=O)O)C(=O)N[C@@H](Cc2ccccc2C2CCCC2)C(=O)O)cc1 [Prodrug 8]   TRUE
4  Cc1nc2ccc3ccc(CNc4ccc(C(=O)N[C@@H](CCC(=O)O)C(=O)N[C@@H](CCC(=O)O)C(=O)O)c(F)c4)cc3c2c(=O)[nH]1 [Prodrug 1]   TRUE

**Query** Does the compound CN(Cc1cnc2nc(N)nc(N)c2n1)c1ccc(C(=O)N[C@@H](CCC(=O)O)C(=O)N[C@@H](Cc2cccc(C3CCCC3)c2)C(=O)O)cc1 [Prodrug 9] have recorded concentration of prodrug in kidney that is 3 nmol/g or more?
**Result** FALSE

====

Listing of entries alongside the reported remaining at 0.5 h.
Assay: Stability and biodistribution of prodrugs in vivo (HPLC of plasma and tissues)
Parameters: species or system mice (CD-1 nude; BALB/C where indicated)
Details: mouse, cecum, 50 mg/kg, CECUM, 30 min, 50 mg/kg i.p. or i.v., CD-1 nude mice; read-out: stability: percentage of material observed as intact prodrug, cecum
Express it in %; write the number only.

Here's what some known entries look like.
                                   molecule    measuredquantity  reported
0  CN(Cc1cnc2nc(N)nc(N)c2n1)c1ccc(C(=O)N[C@@H](CCC(=O)O)C(=O)N[C@@H](Cc2cccc(C3CCCC3)c2)C(=O)O)cc1 [Prodrug 9]  remaining at 0.5 h       100
1  Cc1nc2ccc3ccc(CNc4ccc(C(=O)N[C@@H](CCC(=O)O)C(=O)N[C@@H](Cc5ccccc5C(=O)O)C(=O)O)c(F)c4)cc3c2c(=O)[nH]1 [Prodrug 4]  remaining at 0.5 h       100
2  CN(Cc1cnc2nc(N)nc(N)c2n1)c1ccc(C(=O)N[C@@H](CCC(=O)O)C(=O)N[C@@H](Cc2ccc(O)c(C3CCCC3)c2)C(=O)O)cc1 [Prodrug 13]  remaining at 0.5 h       100

According to the records, this molecule CN(Cc1cnc2nc(N)nc(N)c2n1)c1ccc(C(=O)N[C@@H](CCC(=O)O)C(=O)N[C@@H](CC(=O)O)C(=O)O)cc1 [Prodrug 6] displays remaining at 0.5 h of 82

For Cc1nc2ccc3ccc(CNc4ccc(C(=O)N[C@@H](CCC(=O)O)C(=O)N[C@@H](Cc5ccccc5I)C(=O)O)c(F)c4)cc3c2c(=O)[nH]1 [Prodrug 5] the molecule record lists remaining at 0.5 h as 95

Recorded remaining at 0.5 h (molecule CN(Cc1cnc2nc(N)nc(N)c2n1)c1ccc(C(=O)N[C@@H](CCC(=O)O)C(=O)N[C@@H](Cc2cccc(C(C)(C)C)c2)C(=O)O)cc1 [Prodrug 12] ): 100

Looking up CN(Cc1cnc2nc(N)nc(N)c2n1)c1ccc(C(=O)N[C@@H](CCC(=O)O)C(=O)N[C@@H](Cc2ccccc2C2CCCC2)C(=O)O)cc1 [Prodrug 8] , I found its remaining at 0.5 h recorded as 75
